- procedureText: qHTS assay to identify small molecule antagonists of the farnesoid-X-receptor (FXR) signaling pathway - cell viability counter screen (AID 743221); note: nearly all actives have a fitted effect of over 50% in size
- testContext: FXR-bla HEK293T viability, CellTiter-Glo luminescence, 16 h; series mostly up to 62.6 µM
Records with an inconclusive call do not appear. Active and inactive are the calls of the source. Calls come from the whole dose curve; as a rule, active = well fitted cell-killing curve with a large enough effect in the repeat runs (not every such curve was filed as active); inconclusive = weak or mixed curves, or effect the other way; inactive = no such curve, though single readings can be large or run the other way.
reportedProperty: outcome

[[record]]
compound = "CCCCCCCCCCCC(=O)O"
endpointvalue = "inactive"

[[record]]
compound = "CC(=O)O"
endpointvalue = "inactive"

[[record]]
compound = "CCCC[N+]1(C)CCCC1"
endpointvalue = "inactive"

[[record]]
compound = "O=S(=O)(O)O"
endpointvalue = "inactive"

[[record]]
compound = "CCCC[n+]1ccccc1C"
endpointvalue = "inactive"

[[record]]
compound = "O=[N+]([O-])c1ccccc1O"
endpointvalue = "inactive"

[[record]]
compound = "CN(C)[C@@H]1C(=O)C(C(N)=O)=C(O)[C@@]2(O)C(=O)C3=C(O)c4c(O)cccc4[C@@](C)(O)[C@H]3[C@H](O)[C@@H]12"
endpointvalue = "inactive"

[[record]]
compound = "CCC(=O)C(CC(C)N(C)C)(c1ccccc1)c1ccccc1 (stereo unspecified)"
endpointvalue = "inactive"

[[record]]
compound = "OCCOc1ccccc1"
endpointvalue = "inactive"

[[record]]
compound = "CCCC[n+]1ccc(C)cc1"
endpointvalue = "inactive"

[[record]]
compound = "CCCCCCCCCCn1cc[n+](C)c1"
endpointvalue = "inactive"

[[record]]
compound = "Cc1cc(-c2ccc(N)c(C)c2)ccc1N"
endpointvalue = "inactive"

[[record]]
compound = "O=C(O)CCl"
endpointvalue = "inactive"

[[record]]
compound = "CC(Cl)(Cl)C(=O)O"
endpointvalue = "inactive"

[[record]]
compound = "CCCC[n+]1cccc(C)c1"
endpointvalue = "inactive"

[[record]]
compound = "COCC(=O)N(c1c(C)cccc1C)C(C)C(=O)OC (stereo unspecified)"
endpointvalue = "inactive"

[[record]]
compound = "O=C(O)c1nc(Cl)ccc1Cl"
endpointvalue = "inactive"

[[record]]
compound = "CCOP(=S)(OCC)Oc1ccc2c(C)c(Cl)c(=O)oc2c1"
endpointvalue = "inactive"

[[record]]
compound = "C[C@]12CCC(=O)C=C1CC[C@@H]1[C@@H]2CC[C@]2(C)C(=O)CC[C@@H]12"
endpointvalue = "inactive"

[[record]]
compound = "C=CCOC(Cn1ccnc1)c1ccc(Cl)cc1Cl (stereo unspecified)"
endpointvalue = "inactive"

[[record]]
compound = "CCCCCCCCn1cc[n+](C)c1"
endpointvalue = "inactive"

[[record]]
compound = "O=C(O)C(Cl)Cl"
endpointvalue = "inactive"

[[record]]
compound = "CCCCCC[n+]1ccccc1"
endpointvalue = "inactive"

[[record]]
compound = "O=C(O)CC(O)(CC(=O)O)C(=O)O"
endpointvalue = "inactive"

[[record]]
compound = "CC[n+]1ccccc1"
endpointvalue = "inactive"

[[record]]
compound = "O=C(O)c1ccccc1O"
endpointvalue = "inactive"

[[record]]
compound = "O=P1(N(CCCl)CCCl)NCCCO1 (stereo unspecified)"
endpointvalue = "inactive"

[[record]]
compound = "Nc1ccc(-c2ccc(N)c(Cl)c2)cc1Cl"
endpointvalue = "inactive"

[[record]]
compound = "CC[N+]1(C)CCCC1"
endpointvalue = "inactive"

[[record]]
compound = "COP(=O)(OC)OC=C(Cl)Cl"
endpointvalue = "inactive"

[[record]]
compound = "CCCC[N+]1(C)CCCCC1"
endpointvalue = "inactive"

